- System: Kasumi-1
- Experiment description: CellTox Green cytotoxicity fluorescence relative to DMSO vehicle (fold of vehicle RFU); higher = more cell death (loss of membrane integrity), active = 2 or more
- Details: 1 µM; 72 h
Think of 1 as a floor: if CellTox Green cytotoxicity fluorescence stands on it or above, it is label 1; beneath it, label 0.

Textbook exercise: given the entry CN[C@@H]1C[C@H]2O[C@@](C)([C@@H]1OC)n1c3ccccc3c3c4c(c5c6ccccc6n2c5c31)C(=O)NC4 , state whether its CellTox Green cytotoxicity fluorescence is greater than or equal to 1. label 1

Textbook exercise: given the entry CC[C@H](C)[C@@H]([C@@H](CC(=O)N1CCC[C@H]1[C@H](OC)[C@@H](C)C(=O)N[C@H](C)[C@@H](O)c1ccccc1)OC)N(C)C(=O)[C@@H](NC(=O)[C@@H](NC)C(C)C)C(C)C , state whether its CellTox Green cytotoxicity fluorescence is greater than or equal to 1. label 1

Textbook exercise: given the entry O=c1[nH]c2ccccc2n1C1CCN(Cc2ccc(-c3[nH]c4cc5ncnc5cc4nc3-c3ccccc3)cc2)CC1 , state whether its CellTox Green cytotoxicity fluorescence is greater than or equal to 1. label 1

Textbook exercise: given the entry COc1ccc2c(c1)/C(=C/c1cnc[nH]1)C(=O)N2 , state whether its CellTox Green cytotoxicity fluorescence is greater than or equal to 1. label 0

Textbook exercise: given the entry COc1cc([C@@H]2c3cc4c(cc3[C@H](O)[C@H]3COC(=O)[C@@H]23)OCO4)cc(OC)c1OC , state whether its CellTox Green cytotoxicity fluorescence is greater than or equal to 1. label 1

---

- System: Kasumi-1
- Experiment description: CellTox Green cytotoxicity fluorescence relative to DMSO vehicle (fold of vehicle RFU); higher = more cell death (loss of membrane integrity), active = 2 or more
- Details: 0.1 µM; 48 h
Reported metric: CellTox Green cytotoxicity fluorescence
Form rule: numeric answer, no unit written next to it.

Recorded CellTox Green cytotoxicity fluorescence, per entry:
| Chemical structure | CellTox Green cytotoxicity fluorescence |
| --- | --- |
| Cn1c(COP(=O)(NCCBr)NCCBr)cnc1[N+](=O)[O-] | 0.956 |
| COc1ccc2c(c1)/C(=C/c1cnc[nH]1)C(=O)N2 | 0.981 |
| CC1=C(O)C(=O)C=C2C1=CC=C1[C@@]2(C)CC[C@@]2(C)[C@@H]3C[C@](C)(C(=O)O)CC[C@]3(C)CC[C@]12C | 0.962 |

Param item: O=c1[nH]c2ccccc2n1C1CCN(Cc2ccc(-c3[nH]c4cc5ncnc5cc4nc3-c3ccccc3)cc2)CC1 ; param system: Kasumi-1; output CellTox Green cytotoxicity fluorescence: 0.99

Param item: COc1cc([C@@H]2c3cc4c(cc3[C@H](O)[C@H]3COC(=O)[C@@H]23)OCO4)cc(OC)c1OC ; param system: Kasumi-1; output CellTox Green cytotoxicity fluorescence: 0.999

Param item: CC[C@H](C)[C@@H]([C@@H](CC(=O)N1CCC[C@H]1[C@H](OC)[C@@H](C)C(=O)N[C@H](C)[C@@H](O)c1ccccc1)OC)N(C)C(=O)[C@@H](NC(=O)[C@@H](NC)C(C)C)C(C)C ; param system: Kasumi-1; output CellTox Green cytotoxicity fluorescence: 1.42

Param item: Cc1cc2c(C(C)C)c(O)c(O)c(C=O)c2c(O)c1-c1c(C)cc2c(C(C)C)c(O)c(O)c(C=O)c2c1O ; param system: Kasumi-1; output CellTox Green cytotoxicity fluorescence: 0.973

---

Item-by-item account of CellTox Green cytotoxicity fluorescence
- Tested on: CMK
- Experiment description: CellTox Green cytotoxicity fluorescence relative to DMSO vehicle (fold of vehicle RFU); higher = more cell death (loss of membrane integrity), active = 2 or more
- Details: 0.1 µM; 24 h
Form rule: numeric answer, no unit written next to it.

Recorded CellTox Green cytotoxicity fluorescence, per entry:
| Compound | Study target | Recorded value |
| --- | --- | --- |
| CC[C@H](C)[C@@H]([C@@H](CC(=O)N1CCC[C@H]1[C@H](OC)[C@@H](C)C(=O)N[C@H](C)[C@@H](O)c1ccccc1)OC)N(C)C(=O)[C@@H](NC(=O)[C@@H](NC)C(C)C)C(C)C [Monomethyl auristatin E] | CMK | 1.52 |
| COc1ccc2c(c1)/C(=C/c1cnc[nH]1)C(=O)N2 | CMK | 0.922 |
| Cn1c(COP(=O)(NCCBr)NCCBr)cnc1[N+](=O)[O-] | CMK | 0.972 |
| COc1cc(C)[nH]c(=O)c1CNC(=O)c1c(C)n([C@H](C)C2CCOCC2)c2ccccc12 | CMK | 0.936 |

Param item: O=c1[nH]c2ccccc2n1C1CCN(Cc2ccc(-c3[nH]c4cc5ncnc5cc4nc3-c3ccccc3)cc2)CC1 ; param system: CMK; output CellTox Green cytotoxicity fluorescence: 0.983

Param item: Cc1cc2c(C(C)C)c(O)c(O)c(C=O)c2c(O)c1-c1c(C)cc2c(C(C)C)c(O)c(O)c(C=O)c2c1O ; param system: CMK; output CellTox Green cytotoxicity fluorescence: 0.998

Param item: CC1=C(O)C(=O)C=C2C1=CC=C1[C@@]2(C)CC[C@@]2(C)[C@@H]3C[C@](C)(C(=O)O)CC[C@]3(C)CC[C@]12C [Celastrol] ; param system: CMK; output CellTox Green cytotoxicity fluorescence: 0.946

Param item: O=C(O)C(=O)c1cn(Cc2ccccc2)c2ccc(-c3ccc(OC(F)(F)F)cc3)cc12 [Tiplaxtinin] ; param system: CMK; output CellTox Green cytotoxicity fluorescence: 1.01

---

- Test system: MV4-11
- Experiment description: CellTox Green cytotoxicity fluorescence relative to DMSO vehicle (fold of vehicle RFU); higher = more cell death (loss of membrane integrity), active = 2 or more
- Details: 0.1 µM; 48 h
Please reply with one of these outcomes: Y for active, N for inactive

Below are worked cases with known answers.
| Chemical structure | Study target | Assigned category |
| --- | --- | --- |
| Cc1cc2c(C(C)C)c(O)c(O)c(C=O)c2c(O)c1-c1c(C)cc2c(C(C)C)c(O)c(O)c(C=O)c2c1O | MV4-11 | N |
| O=c1[nH]c2ccccc2n1C1CCN(Cc2ccc(-c3[nH]c4cc5ncnc5cc4nc3-c3ccccc3)cc2)CC1 | MV4-11 | N |
| CC[C@H](C)[C@@H]([C@@H](CC(=O)N1CCC[C@H]1[C@H](OC)[C@@H](C)C(=O)N[C@H](C)[C@@H](O)c1ccccc1)OC)N(C)C(=O)[C@@H](NC(=O)[C@@H](NC)C(C)C)C(C)C | MV4-11 | Y |
| Cn1c(COP(=O)(NCCBr)NCCBr)cnc1[N+](=O)[O-] | MV4-11 | N |
| COc1cc([C@@H]2c3cc4c(cc3[C@H](O)[C@H]3COC(=O)[C@@H]23)OCO4)cc(OC)c1OC | MV4-11 | N |
| CC1=C(O)C(=O)C=C2C1=CC=C1[C@@]2(C)CC[C@@]2(C)[C@@H]3C[C@](C)(C(=O)O)CC[C@]3(C)CC[C@]12C | MV4-11 | N |

For CN[C@@H]1C[C@H]2O[C@@](C)([C@@H]1OC)n1c3ccccc3c3c4c(c5c6ccccc6n2c5c31)C(=O)NC4 , which call appears in the assay record? N

---

- System: CMK
- Experiment description: CellTox Green cytotoxicity fluorescence relative to DMSO vehicle (fold of vehicle RFU); higher = more cell death (loss of membrane integrity), active = 2 or more
- Details: 0.1 µM; 48 h
Think of 1 as a floor: if CellTox Green cytotoxicity fluorescence stands on it or above, it is TRUE; beneath it, FALSE.

| Compound | Assigned category |
| --- | --- |
| COc1ccc2c(c1)/C(=C/c1cnc[nH]1)C(=O)N2 | FALSE |
| CC[C@H](C)[C@@H]([C@@H](CC(=O)N1CCC[C@H]1[C@H](OC)[C@@H](C)C(=O)N[C@H](C)[C@@H](O)c1ccccc1)OC)N(C)C(=O)[C@@H](NC(=O)[C@@H](NC)C(C)C)C(C)C [Monomethyl auristatin E] | TRUE |

Textbook exercise: given the entry O=c1[nH]c2ccccc2n1C1CCN(Cc2ccc(-c3[nH]c4cc5ncnc5cc4nc3-c3ccccc3)cc2)CC1 , state whether its CellTox Green cytotoxicity fluorescence is greater than or equal to 1. FALSE

Textbook exercise: given the entry CN[C@@H]1C[C@H]2O[C@@](C)([C@@H]1OC)n1c3ccccc3c3c4c(c5c6ccccc6n2c5c31)C(=O)NC4 [Staurosporine] , state whether its CellTox Green cytotoxicity fluorescence is greater than or equal to 1. TRUE

Textbook exercise: given the entry COc1cc([C@@H]2c3cc4c(cc3[C@H](O)[C@H]3COC(=O)[C@@H]23)OCO4)cc(OC)c1OC [Picropodophyllin] , state whether its CellTox Green cytotoxicity fluorescence is greater than or equal to 1. TRUE
